Origin of measurements: the nanobody polyreactivity screen of Harvey et al. (2022)

- protocol: yeast display, Sf9 membrane polyspecificity reagent, FACS + sequencing; frameworks hold sequencing errors
readout kind: polyreactivity (PSR sort gate)

INSERT INTO measurements (sequence_data, readout_kind, observed_result) VALUES
  ('QVQLVESGGGLVQAGGSLRLSGDATGLIFNKYAMGWYRQAPGKERELVAVISFRGDGTHYADSVKGRFTISRDNAKYTVYLQMNSLKPEDTAVYYCNARTSIYGRRLYDYWGQGTQVTVSS', 'polyreactivity (PSR sort gate)', 'high polyreactivity'),
  ('QVQLVESGVGLVKAGGILRLSCAASGFTFASNVMGWSRQAPGKERELVAAITSGASTNYADSVKGRFTISRDNAKNTVYLQMNSLKPEDTAVYYCAAGRQWYVFYEFDYWGQGTQVTVSS', 'polyreactivity (PSR sort gate)', 'high polyreactivity'),
  ('QVQLVESGGGLVQAGGSLRLSSAASGRISQNAIGWYRQAPGKERELVAAITFSGGSTYYADSVKGRFTISRDNAKNTVFLQMNSLKPEDTAVYYCAAEDRPLYWRFPDEMDYWGQGTQVTVSS', 'polyreactivity (PSR sort gate)', 'low polyreactivity'),
  ('QVQLVESGGGLVQAGGSLRLSCAASGRTFRYYTMGWYRQAPGKERELVASISWSGGSTYYADSVKGRFTISRDNAKNTVYLQMNSLKPEDTAVYYCNAVYGYRGVTNMDYWGQGTQVTVSS', 'polyreactivity (PSR sort gate)', 'high polyreactivity'),
  ('QVQLVESGGGLVQAGGSLRLSCAASGLTYNRYTMGWYRQAPGKERELVAAITSSGSTYYADSVKGRFTISRDNAKYTVYLQMNSLKPEDTAVYYCNTVYYDWFHYDYWGQGTQVTVSS', 'polyreactivity (PSR sort gate)', 'high polyreactivity'),
  ('QVQLVESGGGLVQAGGSLRLSCAASGRIFTVYAMGWYRQAPGKERELVAAISGRGGRTYYADSVKGRFTISRDNAKNTVYLQMNSLKPEDTAVYYCNADTLTLTRPDGDIHTVWMDYWGQGTQVTVSS', 'polyreactivity (PSR sort gate)', 'low polyreactivity'),
  ('QVQLVESGGGLVQAGGSLRLSCAASGRTFYTVYAMGWYRQAPGKERELVAAITRSGGSTYYADSVKGRFTISRDNAKNTLYLQMNSLKPEDTAVYYCAAAPPLAGLGGYYWGQGTQVTVSS', 'polyreactivity (PSR sort gate)', 'high polyreactivity'),
  ('QVQLVESGGGLVQAGGSLRLSCAASGSIFVNNALGWDRQAPGKDWELVAAISSRGGSTYYADSVKGRFTISRDNAKNTVYLQMHSLKPEDTAVYYCAAEYDGPYYSFYPEQRYYWGQGNQVTVSS', 'polyreactivity (PSR sort gate)', 'low polyreactivity'),
  ('QVQLVESGGGLVQAGGSLRLSCASSGLTFYPYAMGWYRQAPGKERELVAAISKSGGRTSYADSVKGRFTISRDNAKNTVYLQMNSLKPEDTAVYYCNARSGTFGYSTYGYWGQGTQETVSS', 'polyreactivity (PSR sort gate)', 'high polyreactivity'),
  ('QVQLVESGGGLVQAGGSLRLSCAASGSTFVTYGMGWYRQAPGKERELVAAITRDSSTNDADSVKGRFTISRDNAKNTVYLQLNSLKPEDTAVYYCATPRLPNFIGTEYDYWGQGTQVTVSS', 'polyreactivity (PSR sort gate)', 'low polyreactivity'),
  ('QFQLGESGGGLVQAGGSLRLSCAASGYIFKKNAMGWYRQAPGYERELVAVISARGGRTYYADSVKGRFTISRDKGKNTVYLQMNSLKPEDTAVYYCAAVSLGITYDYWGQGTQVTVSS', 'polyreactivity (PSR sort gate)', 'low polyreactivity');

---

- protocol: yeast display, Sf9 membrane polyspecificity reagent, FACS + sequencing; frameworks hold sequencing errors
readout kind: polyreactivity (PSR sort gate)

INSERT INTO results (sequence_data, observed_result) VALUES
  ('QVQLVESGGGLVQSGGSLRLSCAASGSTFHTYAMGWYRQAPGKERELFASIRTSGGSTNADSVKGRFTISRDNAKNTVYLQMNSLNPEDTAVYYCAAYYFYGLYDAYYYWGQGTEVTVSS', 'low polyreactivity'),
  ('QVQLVESGGGLVQAGGSLRLSCAASGSTFGFNAMGWYRQAPGKERELVAAINSGSTTYADSVKGRFTISRDNAKNTVYLQMNSLKPEDTAVYYCAARYRYRYGYYYWGQGTQVTVSS', 'high polyreactivity'),
  ('QVQLVESGGGLVQAGGSLRLSCAASGFIFADNAMGWYRQAPGKERELVAGITSGGITNYADSVKGRFTISRDNAKNTVYLQMNSLKQVDTAVYYCAVYYRRWFSRYDYWGQGTQVTVSS', 'low polyreactivity'),
  ('QVQLVESGGCLLQAGGSLSLSCAASGSTSPANTMGWYRQAPGKEREFVAGISRRGGRTYYADSVKGRFTISRDTAKNTVYLQMNSLKPEDTAVYYSATALIVRGPSRYEYWGHGTQVTVSS', 'high polyreactivity'),
  ('QVQLVESGGGLVQAGGSLRLSCAASGFTFYRYAMGWYRQAPGKERELVAAITSGGSTNYADSVKGRFTISRDNANNTVYLQMNSLKPEDTAVYYCNAGRYVRWWWYSPDDYWGQGTQVTVSS', 'high polyreactivity'),
  ('QVQLQESGAGLVQAGGSLRLCCAASGSIFYVYGMGWYRQAPGKERELVAGINAGTNTNYADSVRGRFTISRDNAKNTVHLQMNSLKPEDTAVYYCAADGNGYQAHEYWGQGTQVTVSS', 'high polyreactivity'),
  ('QVQLVESGGGLVQAGGSLRLSCAASGISFERNGMGWYRQATGKERELVAAIRSGGSTYYADSVKGRFTISRDNAKNRVYVQMHSLKPEETAVYYCAAVTQGGYTDLGDYWGQGTQVTVSS', 'low polyreactivity'),
  ('QVQLVESGGGLVQAGDSLRLSCAASGLTFSAYVMGWYRQAPGKERELVAATSRRGGTTYYADSVKGRFTISRDNAKITVYLQMNSLKPEDTAVYYCGTDYTSGSSYHVGYCGQGTQVTVSS', 'high polyreactivity'),
  ('QVQLVESGGGLVQAGGSLRLSCAASGITFDYYTMGWYRQAPGKERELVAGITRGGRTYYADSVKGRFTISRDNAKNTVYLQMNSLKPEDTAVYYCNADPWWRFDYWGQGTQVTVSS', 'low polyreactivity'),
  ('QVQLVESGRGLVQAGGSLRLSCAASGSIFGAYVMGWYRQAPGKERELVAAITRRGGSTYYADSVKGRFTISRDNAKNTVYLQMNSLKPEDTAVYYCAARRGAGDGYWGQGTQVNVSS', 'high polyreactivity'),
  ('QVQLVESGAGLVQAGGSLRLSCAASGSIFDVNAMGWYRQAPGKERELVAAISQRGTRTYYADSVKGRFTISRDNAKNTVYLQMNRLKPEDTAVYYFNRGGWRKYDSWGQGTQVTVSS', 'high polyreactivity');

---

- protocol: yeast display, Sf9 membrane polyspecificity reagent, FACS + sequencing; frameworks hold sequencing errors
readout kind: polyreactivity (PSR sort gate)

INSERT INTO assay_data (sequence_data, observed_result) VALUES
  ('QVQLVESGGGLVQAGGSLRLSCAASGSTFYPYAMGWYRQAPGKERELVAAINWSGGTTYYADSVKGRFTLSRDNAKNTVYLQMNSLKPEDTAVYYCAAVGYPPGYGYWGQGTQVTVSS', 'low polyreactivity'),
  ('QVQLVESGGGLVQAGGSLRLSCAASGSIFVGHAMGWYRQAPGKERELVATISRSGGSTYYADSVKGRFTISRDNAKNTVYLQMNSLKPEDTAVYYCAKTPYRRYSYGGYTYRTYDYWGQGTQVTVSS', 'low polyreactivity'),
  ('QVQLVESGGGLVQAGGSLRLSCAASGFTFIRYAMGWYRQAPGKERELVATITRRGGSTYYADSVTGRFTISRDNAKNTVYFQMNSLKPEDTAVYDCNRDYVTYGQYYYWGQGTQVTVSS', 'high polyreactivity'),
  ('QVQLVESGGGLVQAGGRLRLSCAASGRIFAYYAMGWYRQAPGKERELVAGISQRGSRTYYADSVKGRFTNSRDNAKNTVYLQMNSLTPEDTAVYYCAARDRRTVTMDYWGQGTQVTVSS', 'high polyreactivity'),
  ('QVQLVESGGGLVQAGGSLRLSCAASGRIYGVYALGWYRQAPGKERELVAAITSSGGSTYYADSVKGRFTISRDNAKNTVYLQMNSLKPEDTAVYYCAADNTFRDDYFLYYLFNYNYWGQGTQVTVSS', 'low polyreactivity');

---

- protocol: yeast display, Sf9 membrane polyspecificity reagent, FACS + sequencing; frameworks hold sequencing errors
readout kind: polyreactivity (PSR sort gate)

INSERT INTO measurements (sequence_data, observed_result) VALUES
  ('QVQVVESGGGLVQAGGSLRLSCAPSGRIFTIYVMGWYRQAPGKERELVATITYSSGSTTYADSVKGRFTISRDNAKNTVYLQMNSLKPEDTAVYYCAKKYYTGYGYWGQGTQVTVSS', 'low polyreactivity'),
  ('QVQLVESGGGLVQAGGSLRLSCAASGSIFKRYAMGWYRQAPGKERELVAAISTSGGRTYYADSVKGRFTISRDNAKNTVYLQMNRLNQEDTAVYYCAADIWARYYFWGFEHDYWGQGTQVTVSS', 'low polyreactivity');
